Where these numbers come from: patent US20220017489A1

Assay: Quantitative (24-hour shake flask) thermodynamic solubility of Compound 1A in organic solvents and water
Assay type: physicochemical
Details: organic solvent or mixture, thermodynamic from solid, Ethanol, room temperature
metric: solubility at 24 h

Memo: CC(C)(O)CNc1nc(Nc2ccnc(C(F)(F)F)c2)nc(-c2cccc(C(F)(F)F)n2)n1 [Compound 1A] , reported solubility at 24 h: > 408 mg/mL

---

Test: physchem
Settings: ethanol, organic solvent or mixture, thermodynamic from solid
metric: solubility at 24 h

Memo: CC(C)(O)CNc1nc(Nc2ccnc(C(F)(F)F)c2)nc(-c2cccc(C(F)(F)F)n2)n1 , reported solubility at 24 h: 7.3 mg/mL

---

Experiment: physchem
Conditions: 1,4-dioxane, organic solvent or mixture, thermodynamic from solid
metric: solubility at 24 h (mg/mL)
Give bare numbers, in mg/mL.

Memo: CC(C)(O)CNc1nc(Nc2ccnc(C(F)(F)F)c2)nc(-c2cccc(C(F)(F)F)n2)n1 , reported solubility at 24 h: 0.4

---

Test: Quantitative (24-hour shake flask) thermodynamic solubility of Compound 1A in organic solvents and water
Type: physicochemical
Conditions: organic solvent or mixture, thermodynamic from solid, 1,4-Dioxane, room temperature
metric: solubility at 24 h (mg/mL)
Answers are plain numbers, in mg/mL.

Memo: CC(C)(O)CNc1nc(Nc2ccnc(C(F)(F)F)c2)nc(-c2cccc(C(F)(F)F)n2)n1 , reported solubility at 24 h: 69.2

---

Experiment: Quantitative (24-hour shake flask) thermodynamic solubility of Compound 1A in organic solvents and water
Type: physicochemical
Conditions: organic solvent or mixture, thermodynamic from solid, Tetrahydrofuran, room temperature
Procedure: The solubility of Compound 1A was quantitatively assessed in 10 different organic solvents and water. Slurries were prepared by mixing 30 mg of Compound 1A with an appropriate solvent volume. A stirring bean was added and the suspensions were stirring (500 rpm) at room temperature for 24 hours. An aliquot of the suspension was transferred into a spin filter (nylon, 0.2 μm). The solubility of the filtered solution was determined by HPLC.
metric: solubility at 24 h

Memo: CC(C)(O)CNc1nc(Nc2ccnc(C(F)(F)F)c2)nc(-c2cccc(C(F)(F)F)n2)n1 , reported solubility at 24 h: > 429 mg/mL

---

Test: Solubility determination of amorphous solid dispersions of Compound 1A in water, SIF and SGF at 37° C.
Type: physicochemical
Details: thermodynamic from solid, Water
metric: solubility

Memo: CC(C)(O)CNc1nc(Nc2ccnc(C(F)(F)F)c2)nc(-c2cccc(C(F)(F)F)n2)n1 , reported solubility: ~1 µg/mL
